test: soluble on expression in E. coli; label from the status in PepcDB or PDB records
assayMetric: soluble on expression in E. coli

Below, each entry is followed by its recorded soluble on expression in E. coli result.
MSLPIDTWFPLAVSRNLLTPDPALHERMVAQIFQWRGDLWANPSGESAWTGDMNGVALVHEHPDFAWLRSQVEVEALQFCQALGFQTEALQLWIQRSWPVVSEPGQSIGAHHHPNAHLSAIYYLNGSGDPELGALRIFDDRPRNELVPGLAVGYGEVIAEEAALNQAWIDYPPQAGLLLMFPASTRHGVTENLTDLTRLSVSFDLYLTARSATELAPEYLAPPVNRWSPIQLREGHHHHHH; soluble
TYDSLKESTARDTGHLTLTTPGYFAKEEEMPLSNGLSHADEITKQLIGLSEVRGVQPRVEFSGLISNGSKSSIFIGIGVNEREFDMKGPFLDVRDGQTLSNIHASRYDASEPEVMLGVDLASNLSVNVGDWITLLATTTDGALNAYDFKVRGIYSTGVPELDKRQLYVHINSAQSLLGSDKVSALSVFLFDTCLTNKVEQQVATILNKQKPSFGDQEVEITPWQERAFFYLKVKDLYDR; not soluble
MIVRSYLYEKLNGDVRCKTCWHRCIIKEGKTGICRVRKNEGGELLVLNYGMASSIALDPIEKKPLNNFKPGSKVLSFGSVSCNFRCLHCQNFEIAFADLDYSYLREIDPDTVLRMCIDRRADGVAWTYNEPAIWHEFALDSSKLVKESGYYVVYVTNGYMTPEAVDQFEGVLDAANVDVKAFSEDFYKKICKAKLEHVLETVEYLHRKGVFVELTYLIIPGENDSREELRDFCRWVADLSPKIPVHFSRFHPDYKMLDKPPTPVEKIEEAVEIAKKEGIEYVYAGNVWGHRYENTYCPNCGELLIEREGFYVYNINLVRDNPPKCPNCGYAQNIIL; not soluble
MSLRHLQSTIHPELDHLDDKIIFQRNAARAIVLDGEDVLLLYTERYHDYTLPGGGIDEGEDVIAGLVRELEEETGAQNIHSIKPFGIFEEFRPWYKDDADVMHMISYCYTCKIDRELGETAYEDYEVKNGMRPVWMNVHEAIAHNEKTMAESPKKGMSIERETFLLHLIAKELLEGHHHHHH; soluble

Req: Recorded soluble on expression in E. coli for MEPKRSRLVVCAPEPSHAREFPDVAVFSGGRANASQAERLARAVGRVLADRGVTGGARVRLTMANCADGPTLVQINLQVGDTPLRAQAATAGIDDLRPALIRLDRQIVRASAQWCPRPWPDRPRRRLTTPAEALVTRRKPVVLRRATPLQAIAAMDAMDYDVHLFTDAETGEDAVVYRAGPSGLRLARQHHVFPPGWSRCRAPAGPPVPLIVNSRPTPVLTEAAAVDRAREHGLPFLFFTDQATGRGQLLYSRYDGNLGLITPTGDGVADGLA , please?
Resp: soluble

Req: What would you report for SDLDLLDLNPRIIAAIKKAKLKSVKEVLHFSGPDLKRLTNLSSPEVWHLLRTASLHLRGSSILTALQLHQQKERFPTQHQRLSLGCPVLDALLRGGLPLDGITELAGRSSAGKTQLALQLCLAVQFPRQHGGLEAGAVYICTEDAFPHKRLQQLMAQQPRLRTDVPGELLQKLRFGSQIFIEHVADVDTLLECVNKKVPVLLSRGMARLVVIDSVAAPFRCEFDSQASAPRARHLQSLGATLRELSSAFQSPVLCINQVTEAMEEQGAAHGPLGFWDERVSPALGITWANQLLVRLLADRLREEEAALGCPARTLRVLSAPHLPPSSCSYTISAEGVRGTPGTQSH ?
Resp: soluble

Req: What would you report for MGSDKIHHHHHHMKAVYPGSFDPITLGHVDIIKRALSIFDELVVLVTENPRKKCMFTLEERKKLIEEVLSDLDGVKVDVHHGLLVDYLKKHGIKVLVRGLRAVTDYEYELQMALANKKLYSDLETVFLIASEKFSFISSSLVKEVALYGGDVTEWVPPEVARALNEKLKEGKR ?
Resp: soluble

Req: What would you report for MVDQATLDKLEAGFKKLQEASDCKSLLKKHLTKDVFDSIKNKKTGMGATLLDVIQSGVENLDSGVGIYAPDAESYRTFGPLFDPIIDDYHGGFKLTDKHPPKQWGDINTLVGLDPAGQFIISTRVRCGRSLQGYPFNPCLTAEQYKEMEEKVSSTLSSMEDELKGTYYPLTGMSKATQQQLIDDHFLFKEGDRFLQTANACRYWPTGRGIFHNDAKTFLVWVNEEDHLRIISMQKGGDLKTVYKRLVTAVDNIESKLPFSHDDRFGFLTFCPTNLGTTMRASVHIQLPKLAKDRKVLEDIASKFNLQVRGTRGEHTESEGGVYDISNKRRLGLTEYQAVREMQDGILEMIKMEKAAA ?
Resp: soluble

Req: What would you report for MAEHRSMQRAALLDAARSLLSDGGTEALTFPALAERTGLARSSVYEYFRSRAAVVEELCAVDFPVWAAEVEAAMERETAPDAKVEAYVRTQLDLVGDRRHRAVVAISASELDAGAREKIRAAHGGLIAMIVEALGEMGHGQPRLAAMLLQGVVDAAVRRIELGAAEEPGAITEAAVSMALRGVRG ?
Resp: not soluble

Req: What would you report for MRLPILIINFKAYGEAAGKRAVELAKAAERAARELGVNIVVAPNHLELGLVSQSVDIPVYAQGADVEAGGAHTAHVSLENIKEAGGSGVILNHSEAPLKLNDLARLVAKAKSLGLDVVVCAPDPRTSLAAAALGPHAVAVEPPELIGTGRAVSRYKPEAIVETVGLVSRHFPEVSVITGAGIESGDDVAAALRLGTRGVLLASAAVKAKDPYAKIVELAKPLSELR ?
Resp: soluble

Req: What would you report for MKIQELKLFNGLTEDELQRSLVCSQSNIVEYEKDDYIFSQGERPRWIYMILSGEVLLEQINMAGRQTYAEYLGERQQFGVVDLFLKRKQYSYSARARSHVKLLKISSHFFYGTCENNCMHHSKILFNMMGVFAEEAEKKSKKIQLLTCGSLRQRIALYLLQNSGENKKVELMMNREELAASLNAARPSLSRELSQMQDEGIIKMEGRKSIKILDYSRLQEDLADVSD ?
Resp: not soluble

All values here come from the DeepSol protein solubility set.
